measured_target: HEK293 Galpha15/GCaMP6s without NPYLR7, calcium fluorescence
experimental_protocol: nonspecific activation in parental Galpha15/GCaMP6s cells – cell-based, HEK293 lacking NPYLR7, counter-screen for mosquito NPYLR7 agonist project, dose response (AID 1259426);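 also: potency for a rise in fluorescence over baseline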
Active and inactive are the calls of the source.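 The calls were made as follows: active = EC50 under a set limit in control cells lacking the mosquito receptor, marking a fluorescence artifact; inactive = the rest.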
Write down one outcome, taken from active, inactive

Solved cases below.
INSERT INTO results (molecule, measured_target, assigned_category) VALUES
  ('CCN(CC)c1ccc2c(-c3ccccc3C(=O)O)c3ccc(=[N+](CC)CC)cc-3oc2c1', 'HEK293 Galpha15/GCaMP6s without NPYLR7, calcium fluorescence', 'active'),
  ('O=C(Nc1cccc(-c2nnco2)c1)C1CCCCC1', 'HEK293 Galpha15/GCaMP6s without NPYLR7, calcium fluorescence', 'inactive'),
  ('Cc1ccc(C)c(C2C(C#N)C(=N)SC(=N)C2C#N)c1 (stereo not given)', 'HEK293 Galpha15/GCaMP6s without NPYLR7, calcium fluorescence', 'active');

Query: Give the logged outcome of this assay for the following molecule: `Cc1nn(C)c(Cl)c1/C=C1/CCCc2c1nc1ccccc1c2C(=O)O`
Response: inactive

Query: Query `COc1cccc(CNC2CC2)c1OCc1nc(CO)cs1` next
Response: inactive

====

measured_target: HEK293 Galpha15/GCaMP6s without NPYLR7, calcium fluorescence
experimental_protocol: nonspecific activation in parental Galpha15/GCaMP6s cells – cell-based, HEK293 lacking NPYLR7, counter-screen for mosquito NPYLR7 agonist project, dose response (AID 1259426);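 also: potency for a rise in fluorescence over baseline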
Calls of active or inactive are those of the source.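 How the source made its calls: active means EC50 under a set limit in control cells lacking the mosquito receptor, marking a fluorescence artifact; inactive means the rest.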
Write down one outcome, taken from yes for active, no for inactive

Solved cases below.
INSERT INTO results (compound, assigned_category) VALUES
  ('O=C(c1cnn(-c2ccccc2)n1)N1CCCC(COCc2ccccc2)C1 (stereo not drawn)', 'yes'),
  ('N#CC(C#N)=Cc1ccc(O)c(O)c1', 'no'),
  ('O=c1oc2c(CN3CC4CC(C3)c3cccc(=O)n3C4)c(O)ccc2cc1-c1nc2ccccc2s1 (stereo not drawn)', 'yes'),
  ('O=c1oc2cc(O)ccc2cc1-c1nc2ccccc2o1', 'yes'),
  ('NCCNc1ccc2c3c(cccc13)C(=O)N(c1ccc(Cl)cc1)C2=O', 'yes');

Query: Give the logged outcome of this assay for the following compound: Cc1ccc(C2=NN(C(=O)CN3CCN(C)CC3)C(c3ccccc3Cl)C2)cc1 (stereo not drawn)
Response: no

Query: Query COc1ccc(CC2c3cc(OC)c(OC)cc3CC[N+]2(C)CCC(=O)OCCCCCOC(=O)CC[N+]2(C)CCc3cc(OC)c(OC)cc3C2Cc2ccc(OC)c(OC)c2)cc1OC (stereo not drawn) next
Response: no

Query: Query `NC(=NCCCCCCN=C(N)N=C(N)Nc1ccc(Cl)cc1)N=C(N)Nc1ccc(Cl)cc1` next
Response: no

====

measured_target: HEK293 Galpha15/GCaMP6s without NPYLR7, calcium fluorescence
experimental_protocol: nonspecific activation in parental Galpha15/GCaMP6s cells – cell-based, HEK293 lacking NPYLR7, counter-screen for mosquito NPYLR7 agonist project, dose response (AID 1259426);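 also: potency for a rise in fluorescence over baseline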
Calls of active or inactive are those of the source.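 Rule for the calls: active = EC50 under a set limit in control cells lacking the mosquito receptor, marking a fluorescence artifact; inactive = the rest.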
Write down one outcome, taken from active, inactive

Solved cases below.
INSERT INTO results (molecule, assigned_category) VALUES
  ('O=c1nc2sc3[nH]c(=O)sc3cc-2s1', 'active'),
  ('N#CC(C#N)=C1C=C2C=C(N3CCc4ccccc4C3)CCC2CC1 (stereo unspecified)', 'inactive'),
  ('N#CC1C(=N)Oc2cc(O)ccc2C1c1ccncc1 (stereo unspecified)', 'active'),
  ('CC(C)C(=O)Nc1sc2c(c1-c1nc3ccccc3s1)CCN(C)C2', 'inactive'),
  ('O=C(N=Nc1c(O)[nH]c2ccc(Br)cc12)c1ccccc1Cl', 'inactive');

Now let's try a different one.
Query: Give the logged outcome of this assay for the following molecule: `O=P1(Nc2cc(C(F)(F)F)ccc2Cl)C=C(c2ccccc2)OC(c2ccccc2)=C1`
Response: inactive

====

measured_target: HEK293 Galpha15/GCaMP6s without NPYLR7, calcium fluorescence
experimental_protocol: nonspecific activation in parental Galpha15/GCaMP6s cells – cell-based, HEK293 lacking NPYLR7, counter-screen for mosquito NPYLR7 agonist project, dose response (AID 1259426);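 also: potency for a rise in fluorescence over baseline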
The source made the active and inactive calls.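 Rule for the calls: active = EC50 under a set limit in control cells lacking the mosquito receptor, marking a fluorescence artifact; inactive = the rest.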
Write down one outcome, taken from active, inactive

Solved cases below.
INSERT INTO measurements (compound, measured_target, assigned_category) VALUES
  ('COc1ccccc1Oc1nc2ccccn2c(=O)c1/C=C(\C#N)c1nc2ccccc2s1', 'HEK293 Galpha15/GCaMP6s without NPYLR7, calcium fluorescence', 'inactive'),
  ('COc1ccc(NC(=O)CN2C(=O)c3ccccc3NC23CCN(C)CC3)cn1', 'HEK293 Galpha15/GCaMP6s without NPYLR7, calcium fluorescence', 'inactive'),
  ('CCN1CCN(c2ccc(C(=O)C=Cc3ccc(O)c(OC)c3)cc2F)CC1', 'HEK293 Galpha15/GCaMP6s without NPYLR7, calcium fluorescence', 'active'),
  ('CCc1nn(C(C)C(=O)NC(C)CCc2ccco2)c(=O)c2cc3occc3n12 (stereo not given)', 'HEK293 Galpha15/GCaMP6s without NPYLR7, calcium fluorescence', 'active'),
  ('CN(C)/C=C1\C(=O)N(c2c(Cl)cccc2Cl)c2cc(C=C(C#N)C#N)ccc21', 'HEK293 Galpha15/GCaMP6s without NPYLR7, calcium fluorescence', 'active'),
  ('Cc1ccc(-c2nc3nc(N)n(C)c(=O)c3[nH]c2=O)cc1', 'HEK293 Galpha15/GCaMP6s without NPYLR7, calcium fluorescence', 'inactive'),
  ('CC1(C)CC(=O)C2C(=Nc3[nH]c(=S)[nH]c(=O)c3C2c2ccc3c(c2)OCO3)C1 (stereo not given)', 'HEK293 Galpha15/GCaMP6s without NPYLR7, calcium fluorescence', 'inactive'),
  ('O=C(CNCc1ccccc1)N1CC(=O)N(c2cccc(Cl)c2)C1', 'HEK293 Galpha15/GCaMP6s without NPYLR7, calcium fluorescence', 'inactive');

Query: Give the logged outcome of this assay for the following compound: `O=C1/C(=C/c2cc3ccccc3o2)Oc2c1ccc(O)c2CN1CCN(CCO)CC1`
Response: active

Query: Query CC1CN(c2ccc(/C=C(\C#N)c3nc4ccccc4[nH]3)o2)CC(C)O1 (stereo not given) next
Response: inactive

====

measured_target: HEK293 Galpha15/GCaMP6s without NPYLR7, calcium fluorescence
experimental_protocol: nonspecific activation in parental Galpha15/GCaMP6s cells – cell-based, HEK293 lacking NPYLR7, counter-screen for mosquito NPYLR7 agonist project, dose response (AID 1259426);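 also: potency for a rise in fluorescence over baseline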
Calls of active or inactive are those of the source.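 How the source made its calls: active means EC50 under a set limit in control cells lacking the mosquito receptor, marking a fluorescence artifact; inactive means the rest.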
Write down one outcome, taken from active, inactive

Solved cases below.
INSERT INTO assay_data (compound, measured_target, assigned_category) VALUES
  ('CC(C)NCC(O)c1ccc(O)c(O)c1 (centres undefined)', 'HEK293 Galpha15/GCaMP6s without NPYLR7, calcium fluorescence', 'active'),
  ('O=C1/C(=C/c2cccc(Br)c2)Oc2c1ccc(O)c2CN1CCN(CCO)CC1', 'HEK293 Galpha15/GCaMP6s without NPYLR7, calcium fluorescence', 'active'),
  ('CCOC(=O)c1c(-c2ccccc2)csc1N=Cc1nc(-c2ccccc2)oc1O', 'HEK293 Galpha15/GCaMP6s without NPYLR7, calcium fluorescence', 'inactive');

Query: Give the logged outcome of this assay for the following compound: `CCc1nc(N=C(N)N)nc2cc(C)ccc12`
Response: inactive

Query: Query `CCCCNC(=O)CCCCCNC(N)=O` next
Response: inactive

Query: Query `Cc1cc(O)c(CN2CCCC2)c2c1C(=O)/C(=C/c1cc3ccccc3o1)O2` next
Response: inactive

Query: Query COc1cc(/C=C2\Oc3c(ccc4c3CN(CC3CCCO3)CO4)C2=O)cc(OC)c1OC (centres undefined) next
Response: active

Query: Query `COc1ccccc1CCNC(=O)c1ccc(Cn2c(C)nc3ccccc32)o1` next
Response: inactive

Query: Query `CCCc1[nH]n(-c2ccc(Cl)c(Cl)c2)c(=O)c1/C=C1\NC(=O)N(Cc2ccc(C)cc2)C1=O` next
Response: active

====

measured_target: HEK293 Galpha15/GCaMP6s without NPYLR7, calcium fluorescence
experimental_protocol: nonspecific activation in parental Galpha15/GCaMP6s cells – cell-based, HEK293 lacking NPYLR7, counter-screen for mosquito NPYLR7 agonist project, dose response (AID 1259426);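 also: potency for a rise in fluorescence over baseline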
Calls of active or inactive are those of the source.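 How the source made its calls: active means EC50 under a set limit in control cells lacking the mosquito receptor, marking a fluorescence artifact; inactive means the rest.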
measure: EC50

Some solved cases for reference:
INSERT INTO measurements (compound, measure, result) VALUES
  ('C[n+]1c2cc(N)ccc2cc2ccc(N)cc21', 'EC50', '< 0.039 µM'),
  ('C=C(C)Cn1c(C(=O)N2CCN(C(=O)CCC(=O)OCC)C(C)C2)cc2ccoc21 (stereo not given)', 'EC50', '> 20 µM (inactive)'),
  ('O=C(NCCSc1ccc(Cl)cc1)c1ccc2c(=O)n3c(nc2c1)CCC3', 'EC50', '> 20 µM (inactive)'),
  ('FC(F)(F)c1ccc(-c2nc3ccc(Cl)cn3c2NCc2ccccc2)cc1', 'EC50', '> 20 µM (inactive)'),
  ('CCOc1ccc(/C=C2N=C(/C=C/c3ccccc3)OC/2=O)cc1', 'EC50', '> 20 µM (inactive)');

Query: What value of EC50 has been recorded for this entry: `CC(C)C(=O)Nc1sc2c(c1-c1nc3ccccc3s1)CCN(C(C)C)C2`
Response: > 20 µM (inactive)

Query: Query COc1ccc(C(=O)N(Cc2ccccc2)C2CCC(NC(=O)C3CCN(C(=O)c4ccccc4Cl)CC3)CC2)cc1 (stereo not given) next
Response: > 20 µM (inactive)

Query: Query `CCCC[n+]1c(C)cc(C=C2Sc3ccccc3N2CC)cc1C` next
Response: 18.7 µM

Query: Query `COc1ccc(-c2cnn(CCC(N)=O)c2)c(C)c1` next
Response: > 20 µM (inactive)

Query: Query `COc1ccc(/C=C2\Oc3c(ccc4c3CN(Cc3ccncc3)CO4)C2=O)cc1` next
Response: 8.8 µM

Query: Query CCN1CC=C2C(C#N)C(=N)C(C#N)(C#N)C(c3cccs3)C2C1 (stereo not given) next
Response: > 20 µM (inactive)

Query: Query CC1N(C)c2ccc(C=Cc3cc[n+](C)cc3)cc2C1(C)C (stereo not given) next
Response: 8.49 µM

Query: Query `CC(C)N=c1c([N+](=O)[O-])nn(-c2ccc(Cl)cc2)n1O` next
Response: > 20 µM (inactive)

Query: Query `CN(C)c1ccc(/C=C2/SC(=S)N(CC(=O)O)C2=O)cc1Br` next
Response: 0.346 µM

Query: Query `Clc1cccc2ccc(CN3CCn4cncc4C3)nc12` next
Response: 19.2 µM

Query: Query Nc1ncnc2c1ncn2[C@@H]1O[C@H](CO)[C@H](O)C1O (stereo not given in full) next
Response: 7.87 µM

Query: Query `CC(=O)[C@]1(O)Cc2c(O)c3c(c(O)c2[C@@H](O[C@H]2C[C@H](N)[C@H](O)[C@H](C)O2)C1)C(=O)c1ccccc1C3=O` next
Response: 4.29 µM

Query: Query `COC(=O)c1cc(N)c(/C=C/c2cccs2)s1` next
Response: 0.577 µM
